Assay: Protein binding in human plasma
Type: ADME, cell-free
Conditions: read-out: PPB (converted)
observable: fraction unbound

Recorded result, `Cc1onc(-c2c(F)cccc2Cl)c1C(=O)N[C@@H]1C(=O)N2[C@@H]1SC(C)(C)[C@@H]2C(=O)O` , fraction unbound: 0.054

====

Assay: Plasma concentration in human at 1000 mg, iv infused for 5 mins
Assay type: ADME, organism-based
observable: concentration at 5 min (µg/mL)
Numbers only; they are read as µg/mL.

Recorded result, `Cc1onc(-c2c(F)cccc2Cl)c1C(=O)N[C@@H]1C(=O)N2[C@@H]1SC(C)(C)[C@@H]2C(=O)O` , concentration at 5 min: 167

====

Experiment: Terminal half life in human at 500 mg, iv infused for 5 mins
Assay type: ADME, organism-based
Details: in vivo, read-out: beta t1/2 (converted)
observable: half-life (h)
Numbers only; they are read as h.

Recorded result, `Cc1onc(-c2c(F)cccc2Cl)c1C(=O)N[C@@H]1C(=O)N2[C@@H]1SC(C)(C)[C@@H]2C(=O)O` , half-life: 1.4

====

Assay: Total body clearance in human at 1000 mg, iv infused for 5 mins
Conditions: in vivo
observable: clearance at 5 min (mL/min)
Numbers only; they are read as mL/min.

Recorded result, `Cc1onc(-c2c(F)cccc2Cl)c1C(=O)N[C@@H]1C(=O)N2[C@@H]1SC(C)(C)[C@@H]2C(=O)O` , clearance at 5 min: 136

====

Assay: Renal clearance in human at 1000 mg, iv infused for 5 mins
Format: ADME, organism-based, Kidney
Conditions: in vivo, read-out: CL_renal (converted)
observable: CL renal at 5 min (mL/min)
Numbers only; they are read as mL/min.

Recorded result, `Cc1onc(-c2c(F)cccc2Cl)c1C(=O)N[C@@H]1C(=O)N2[C@@H]1SC(C)(C)[C@@H]2C(=O)O` , CL renal at 5 min: 88.2

====

Assay: Mean residence time in human at 1000 mg, iv infused for 5 mins
Assay type: ADME, organism-based
Conditions: in vivo
observable: MRT
Could you give the number and then its unit, please?

Recorded result, `Cc1onc(-c2c(F)cccc2Cl)c1C(=O)N[C@@H]1C(=O)N2[C@@H]1SC(C)(C)[C@@H]2C(=O)O` , MRT: 1.22 h

====

Experiment: Renal clearance in human at a loading dose of 1 g and maintenance dose of 1.2 g/h for 3 hrs
Format: ADME, organism-based, Kidney
Conditions: in vivo, iv, read-out: CL_renal (converted)
observable: CL renal at 3 h

Recorded result, Cc1onc(-c2c(F)cccc2Cl)c1C(=O)N[C@@H]1C(=O)N2[C@@H]1SC(C)(C)[C@@H]2C(=O)O [FLOXACILLIN] , CL renal at 3 h: 88.3 mL/min

====

Assay: Total body clearance in human at 500 mg, iv infused for 5 mins
Details: in vivo
observable: clearance at 5 min (mL/min)
Numbers only; they are read as mL/min.

Recorded result, Cc1onc(-c2c(F)cccc2Cl)c1C(=O)N[C@@H]1C(=O)N2[C@@H]1SC(C)(C)[C@@H]2C(=O)O [FLOXACILLIN] , clearance at 5 min: 136

====

Test: Renal clearance in human at 500 mg, iv infused for 5 mins
Type: ADME, organism-based, Kidney
Settings: in vivo, read-out: CL_renal (converted)
observable: CL renal at 5 min (mL/min)
Numbers only; they are read as mL/min.

Recorded result, `Cc1onc(-c2c(F)cccc2Cl)c1C(=O)N[C@@H]1C(=O)N2[C@@H]1SC(C)(C)[C@@H]2C(=O)O` , CL renal at 5 min: 89.5

Value source: ChEMBL document CHEMBL1143421
